Source: PubChem BioAssay (NCI)

Test system: A498 renal
Experiment: NCI tumour cell line growth inhibition, 48 h
TGI vs 30 µM: at or above is true (1), below is false (0).

Some solved entries appear below for comparison.
- CNC(=O)NCCCC(NC(C)=O)C(=O)NCc1ccccc1 (stereo not given): true (1)
- O=[N+]([O-])c1ccc2nc(Nc3ccccc3)c(Nc3ccccc3)nc2c1: false (0)
- COc1ccccc1NC(=O)c1cc2cc(Br)ccc2cc1O: false (0)
- Cc1ccc(S(=O)(=O)N2C3C=CC(C3)[C@@H]2C(Cl)(Cl)Cl)cc1 (stereo not given in full): true (1)
- O=c1[nH]c(-c2ccccc2)nc2cc(Cl)ccc12: true (1)

Tell me whether TGI is at least 30 µM here: O=C1/C(=C/c2ccco2)NC(=S)N1CN1CCCCC1
true (1)

// same read-out, input: O=C(/C=C/c1c(O)ccc2ccccc12)c1ccc([N+](=O)[O-])cc1
true (1)

// same read-out, input: N#CC(C(=O)CCC(=O)Nc1ccc(Cl)c(Cl)c1)c1ccccc1 (stereo not given)
true (1)

// same read-out, input: NC(=S)N/N=C1\c2cc(Cl)ccc2-c2c1cc(Cl)cc2[N+](=O)[O-]
false (0)

----------
Tested on: HL-60(TB) leukemia
Test: NCI tumour cell line growth inhibition, 48 h
recorded-metric: TGI

Reference set (3 entries):
* C[C@]12c3c4cc(NC(=O)C(=O)NCc5ccc(-c6ccccn6)nc5)cc3Oc3cc(NC(=O)C(=O)NCc5ccc(-c6ccccn6)nc5)cc(c31)OC1C=C(NC(=O)C(=O)NCc3ccc(-c5ccccn5)nc3)C=C(O4)C12 (some centres undefined) | > 100 µM
* C[C@@H]1CC[C@H]2C(C)(C)[C@H]3C[C@@]12CC[C@@]3(C)O | 61.9 µM
* O=[N+]([O-])c1cc([N+](=O)[O-])c(C(F)(F)F)cc1NN=C(c1ccc(O)cc1)c1ccc(O)cc1 | 11.8 µM

Next item in the queue.
Using the record for Br[Se]c1ccccn1 , report its TGI.
40.3 µM

----------
Test system: HOP-92 NSCLC
Assay: NCI tumour cell line growth inhibition, 48 h; in the data active means GI50 below about 0.43 µM; inactive means the rest
Classes to choose from: yes (1) (active), no (0) (inactive)

Identify the outcome logged in this assay for the compound shown: CCNC(=O)C#Cc1ccc2c(C(=Nc3ccc(CN(C)C)cc3)c3ccccc3)c(O)[nH]c2c1
yes (1)

// same read-out, input: NC(=S)N/N=C1\c2cc(Cl)ccc2-c2c1cc(Cl)cc2[N+](=O)[O-]
no (0)

// same read-out, input: O=C1c2c(F)c(F)c(F)c(F)c2C(=O)N1c1ccc(F)cc1F
no (0)

// same read-out, input: O=[N+]([O-])c1cc([N+](=O)[O-])c(C(F)(F)F)cc1NN=C(c1ccc(O)cc1)c1ccc(O)cc1
no (0)

// same read-out, input: Cc1[cH-]c(=O)n(-c2ccccc2)n1.[Au+].[Au].c1ccc([PH+](c2ccccc2)c2ccccc2)cc1.c1ccc([PH+](c2ccccc2)c2ccccc2)cc1
no (0)

// same read-out, input: C=C1C[C@H](O)[C@H](Br)C(C)(C)[C@@]12CCC(C)=C(Cl)C2
yes (1)

// same read-out, input: COC(=O)/C=C/c1cc(OC(C)=O)c2c(c1)[C@@H](C(=O)OC)[C@H](c1ccc(OC(C)=O)c(OC(C)=O)c1)O2
no (0)

// same read-out, input: CC(=C(c1ccc(OCCN2CCCCC2)cc1)c1ccc(OCCN2CCCCC2)cc1)c1ccc(Cl)cc1
yes (1)
